# target: GABAA receptor
# setup conditions: read-out: Kd, Binding Assays; classical binding assays
recorded endpoint: pKd
Answers are plain numbers, as −log10 of the molar value.

Q: Entry CN1C(=O)CN=C(c2ccccc2)c2cc(Cl)ccc21 : reported pKd = ?
Result: 8.89

* * *

Give Kd for every item shown.
# target: α3/β4 nAChR (Rattus norvegicus, UniProt P04757+P12392)
# Construct: expressed in transfected cells
# Sequence (P04757 26-499): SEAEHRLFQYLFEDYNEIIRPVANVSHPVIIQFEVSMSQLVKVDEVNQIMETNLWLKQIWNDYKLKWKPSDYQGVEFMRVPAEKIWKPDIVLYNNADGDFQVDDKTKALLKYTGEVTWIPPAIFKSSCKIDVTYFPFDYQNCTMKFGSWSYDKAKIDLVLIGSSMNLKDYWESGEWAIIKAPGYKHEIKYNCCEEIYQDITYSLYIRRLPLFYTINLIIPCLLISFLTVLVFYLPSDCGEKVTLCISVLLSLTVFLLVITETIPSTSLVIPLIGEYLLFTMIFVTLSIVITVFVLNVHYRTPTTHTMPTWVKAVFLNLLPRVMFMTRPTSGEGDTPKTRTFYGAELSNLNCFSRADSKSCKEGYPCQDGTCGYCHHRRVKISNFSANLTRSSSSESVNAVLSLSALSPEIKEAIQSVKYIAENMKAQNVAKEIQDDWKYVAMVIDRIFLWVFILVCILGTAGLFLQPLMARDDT
# Sequence (P12392 21-495): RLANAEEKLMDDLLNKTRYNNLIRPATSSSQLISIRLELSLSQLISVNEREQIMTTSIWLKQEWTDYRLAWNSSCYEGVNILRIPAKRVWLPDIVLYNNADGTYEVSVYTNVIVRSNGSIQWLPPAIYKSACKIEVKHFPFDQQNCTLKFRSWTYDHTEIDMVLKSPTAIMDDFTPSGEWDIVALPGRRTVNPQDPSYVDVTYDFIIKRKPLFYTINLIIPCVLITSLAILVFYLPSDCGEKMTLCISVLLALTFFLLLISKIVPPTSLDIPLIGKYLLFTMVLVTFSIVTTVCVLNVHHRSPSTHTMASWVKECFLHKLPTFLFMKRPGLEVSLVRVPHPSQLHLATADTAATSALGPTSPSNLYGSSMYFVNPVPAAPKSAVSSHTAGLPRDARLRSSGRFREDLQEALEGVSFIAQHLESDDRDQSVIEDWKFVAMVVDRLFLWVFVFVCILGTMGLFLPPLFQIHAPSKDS
# test: Ligand binding assay using cell membrane homogenates
Give bare numbers, in µM.

{"smiles entry": "c1cncc(OC[C@@H]2CCN2)c1", "unit of measure": "µM", "Kd": 0.0736}

For the next question, use this compound.
Q: May I ask what Kd has been recorded for C[N+](C)(C)CCOC(N)=O ?
Result: 3.84

* * *

# target: α3/β4 nAChR (Rattus norvegicus, UniProt P04757+P12392)
# Construct: expressed in transfected cells
# test: Frontal chromatography with α3/β4 nAChR-IAM stationary phase ([3H]-EB marker)
# Type: binding
recorded endpoint: Kd (µM)
Give bare numbers, in µM.

Q: Given the compound CN1[C@@H]2CC[C@H]1C[C@@H](OC(=O)C(CO)c1ccccc1)C2 (stereo partly shown) [Atropine] , what is its reported Kd?
Result: 14.6
